- System: Ebola virus
- EXPERIMENT_SUMMARY: microbe, parasite or virus in culture
- Type: cell-based, Ebolavirus (EBOV)
- CONDITION_SET: read-out: IC50
Non-standard residues stand in square brackets, D forms with d. Residues, ends and D or L forms follow the SMILES beside them. *: point of attachment. Nva = CCC[C@H](N)C(=O)O; Cbz = O=C(OCc1ccccc1)*
We label by threshold. Values of IC50 strictly beneath 4000 nM are TRUE. Values of 4000 nM and up are FALSE.

Some solved cases for reference:
{"COMPOUND": "CCCCCCCCCCCCCC(=O)O[C@@H]1[C@@H](C)[C@@]2(O)[C@@H](C=C(CO)C[C@]3(O)C(=O)C(C)=C[C@@H]23)[C@@H]2C(C)(C)[C@]12OC(C)=O [PMA]", "LABEL": "TRUE"}
{"COMPOUND": "NCCNS(=O)(=O)c1ccc(Cl)c2ccncc12 [CKI7]", "LABEL": "FALSE"}

Input line: Please state whether IC50 is below 4000 nM for COc1ccc(-c2nc(C(=O)N3CCN(C)CC3)sc2-c2ccc(OC)cc2)cc1 [FR122047]
Output line: TRUE

Input line: Please state whether IC50 is below 4000 nM for O=[N+]([O-])c1ccccc1OCCCCCOc1ccccc1[N+](=O)[O-] [1,5′-Bis(2-Nitrophenoxy)pentane]
Output line: FALSE

Input line: Please state whether IC50 is below 4000 nM for CC(=O)OC[C@H]1O[C@@H]([S-])[C@H](OC(C)=O)[C@@H](OC(C)=O)[C@@H]1OC(C)=O.CCP(CC)CC.[Au+] [Auranofin]
Output line: TRUE

Input line: Please state whether IC50 is below 4000 nM for CCC[C@@H](C=O)NC(=O)[C@H](CC(C)C)NC(=O)[C@H](CC(C)C)NC(=O)OCc1ccccc1 [MG115] (Cbz-Leu-Leu-[Nva]-aldehyde)
Output line: TRUE

Input line: Please state whether IC50 is below 4000 nM for CNc1ccc2oc(C[C@H]3O[C@@]4(CC[C@H]3C)O[C@H]([C@H](C)C(=O)c3ccc[nH]3)[C@H](C)C[C@H]4C)nc2c1C(=O)O [Calcimycin A23187]
Output line: TRUE

---

Form field: Emax (one value per entry).
- System: Ebola virus
- EXPERIMENT_SUMMARY: microbe, parasite or virus in culture
- Assay type: cell-based, Ebolavirus (EBOV)
- CONDITION_SET: Zaire ebolavirus, Vero, read-out: Max Effect
Structures can show the parent of a compound that is named as a salt.
Dear colleague, please return just the value in %, with no unit written.

{"MOLECULE": "CCOC(=O)N1CCC(=C2c3ccc(Cl)cc3CCc3cccnc32)CC1", "Emax [%]": 37.1}
{"MOLECULE": "CCCN1C[C@H](CSC)C[C@@H]2c3cccc4[nH]cc(c34)C[C@H]21 [Pergolide Mesylate]", "Emax [%]": 38.3}
{"MOLECULE": "CNCCCC12CCC(c3ccccc31)c1ccccc12 [Maprotiline Hydrochloride]", "Emax [%]": 79.5}

Input line: Would you kindly share the measured Emax for C#C[C@]1(O)CC[C@H]2[C@@H]3CCc4cc(OC5CCCC5)ccc4[C@H]3CC[C@@]21C ?
Output line: 54.9

Input line: Would you kindly share the measured Emax for C/C=C(/C)C(=O)O[C@H]1C(C)=C2[C@H]([C@@H]1OC(=O)CCCCCCC)[C@@](C)(OC(C)=O)C[C@H](OC(=O)CCC)[C@@]1(O)[C@H]2OC(=O)[C@@]1(C)O ?
Output line: 70

---

- Tested on: Ebola virus
- EXPERIMENT_SUMMARY: microbe, parasite or virus in culture
- Type: cell-based, Ebolavirus (EBOV)
- CONDITION_SET: Zaire ebolavirus, Vero, read-out: Max Effect
Counter-ions that a name gives are not always drawn.
We label by threshold. Values of Emax strictly beneath 60% are label 1. Values of 60% and up are label 0.

{"COMPOUND": "CCN(CC)CCNC(=O)c1c(C)[nH]c(/C=C2\\C(=O)Nc3ccc(F)cc32)c1C [Sunitinib Malate]", "SYSTEM": "Ebola virus", "LABEL": "label 0"}
{"COMPOUND": "CN[C@H]1CC[C@@H](c2ccc(Cl)c(Cl)c2)c2ccccc21 [Sertraline Hydrochloride]", "SYSTEM": "Ebola virus", "LABEL": "label 1"}
{"COMPOUND": "C=C(C)[C@H]1Cc2c(ccc3c2O[C@@H]2COc4cc(OC)c(OC)cc4[C@@H]2C3=O)O1", "SYSTEM": "Ebola virus", "LABEL": "label 0"}
{"COMPOUND": "CSc1nc2cc(Cl)c(Oc3cccc(Cl)c3Cl)cc2[nH]1", "SYSTEM": "Ebola virus", "LABEL": "label 1"}

Input line: Please state whether Emax is below 60% for CN1CCC(=C2c3ccccc3C=Cc3ccccc32)CC1 [Cyproheptadine Hydrochloride]
Output line: label 1

Input line: Please state whether Emax is below 60% for CN(C)CCOC(C)(c1ccccc1)c1ccccn1 (centres unmarked) [Doxylamine Succinate]
Output line: label 0

Input line: Please state whether Emax is below 60% for CCC(C)(C)C(=O)O[C@H]1C[C@@H](C)C=C2C=C[C@H](C)[C@H](CC[C@@H]3C[C@@H](O)CC(=O)O3)[C@H]21
Output line: label 0

Input line: Please state whether Emax is below 60% for O=C(c1ccc(OCCN2CCCCC2)cc1)c1c(-c2ccc(O)cc2)sc2cc(O)ccc12 [Raloxifene Hydrochloride]
Output line: label 0

---

- Tested on: Ebola virus
- EXPERIMENT_SUMMARY: microbe, parasite or virus in culture
- Type: cell-based, Ebolavirus (EBOV)
Non-standard residues stand in square brackets, D forms with d. Residues, ends and D or L forms follow the SMILES beside them. *: point of attachment. Nva = CCC[C@H](N)C(=O)O; Cbz = O=C(OCc1ccccc1)*
MEASURED_ENDPOINT: Max Effect

{"MOLECULE": "COc1ccc(OC)c2c(=S)c3ccccc3[nH]c12", "Max Effect": 0.418}
{"MOLECULE": "O=C(/C=C/c1ccc(O)c(O)c1)OCCc1ccccc1", "Max Effect": 0.368}

Input line: Would you kindly share the measured Max Effect for O=C([O-])O.[Na+] [Sodium Bicarbonate] ?
Output line: 0.389

Input line: Would you kindly share the measured Max Effect for CCC[C@@H](C=O)NC(=O)[C@H](CC(C)C)NC(=O)[C@H](CC(C)C)NC(=O)OCc1ccccc1 [MG115] (Cbz-Leu-Leu-[Nva]-aldehyde) ?
Output line: 0.693

Input line: Would you kindly share the measured Max Effect for O=S(=O)([O-])[O-].[Mg+2] [Magnesium Sulfate] ?
Output line: 0.719

Input line: Would you kindly share the measured Max Effect for COc1ccc(C[C@H]2NC[C@H](O)[C@H]2OC(C)=O)cc1 ?
Output line: 0.900

Input line: Would you kindly share the measured Max Effect for O=C1Nc2ccc3ncsc3c2/C1=C/c1cnc[nH]1 ?
Output line: 0.434

Input line: Would you kindly share the measured Max Effect for [O-][n+]1ccccc1[S-].[O-][n+]1ccccc1[S-].[Zn+2] ?
Output line: 0.767

---

- Test system: Ebola virus
- EXPERIMENT_SUMMARY: microbe, parasite or virus in culture
- Format: cell-based, Ebolavirus (EBOV)
- CONDITION_SET: Zaire ebolavirus, Vero, read-out: Max Effect
Structures can show the parent of a compound that is named as a salt.
We label by threshold. Values of Emax strictly beneath 50% are 1. Values of 50% and up are 0.

{"COMPOUND": "N#CC(C#N)=NNc1ccc(OC(F)(F)F)cc1", "LABEL": 0}
{"COMPOUND": "CCOC(=O)c1c(CSc2ccccc2)n(C)c2cc(Br)c(O)c(CN(C)C)c12", "LABEL": 0}
{"COMPOUND": "C[C@]12CC[C@H]3C(=CCc4cc(O)ccc43)[C@@H]1CCC2=O", "LABEL": 1}
{"COMPOUND": "CC1(C)C[C@@H]1C(=O)N/C(=C\\CCCCSC[C@H](N)C(=O)O)C(=O)O [Cilastatin Sodium]", "LABEL": 0}
{"COMPOUND": "CC[C@H]1CN2CCc3cc(OC)c(OC)cc3[C@@H]2C[C@@H]1C[C@H]1NCCc2cc(OC)c(OC)cc21 [Emetine dihydrochloride hydrate]", "LABEL": 0}

Input line: Please state whether Emax is below 50% for CC/C(=C(\c1ccccc1)c1ccc(OCCN(C)C)cc1)c1ccccc1
Output line: 0

Input line: Please state whether Emax is below 50% for COCc1c(C(C)C)nc(C(C)C)c(/C=C/[C@@H](O)C[C@@H](O)CC(=O)O)c1-c1ccc(F)cc1 [Cerivastatin Sodium]
Output line: 1

Input line: Please state whether Emax is below 50% for CN1[C@@H]2CC[C@H]1C[C@@H](OC(c1ccccc1)c1ccccc1)C2 [Benztropine Mesylate]
Output line: 0
